Recorded values, source patent US20170050957A1.

System: Key Broadleaf Weed and Crop Species
Experiment: Post-emergent Test II herbicidal activity (Table 15)
Format: in vivo
Details: Helianthus annuus, post-emergence, 336 h, sunflower (Helianthus annuus), 35 g ai/ha, 14 d, read-out: Visual Growth Reduction (%) 14 Days After Application, HELAN
Collected pest or weed control at 35 g/ha values appear next to each entry.
measure: pest or weed control at 35 g/ha

{"input_smiles": "COC(=O)c1nc(-c2ccc(Cl)c3occc23)nc(N)c1OC", "measurement": "60 to 74%"}
{"input_smiles": "COC(=O)c1nc(-c2ccc3[nH]ccc3c2)c(F)c(N)c1Cl", "measurement": "45 to 59%"}
{"input_smiles": "COC(=O)c1nc(-c2ccc3c(cnn3C)c2)c(F)c(N)c1Cl", "measurement": "0 to 29%"}
{"input_smiles": "COC(=O)c1nc(-c2ccc3sccc3c2)nc(N)c1OC", "measurement": "60 to 74%"}
{"input_smiles": "COC(=O)c1nc(-c2ccc3ccsc3c2)nc(N)c1OC", "measurement": "75 to 84%"}
{"input_smiles": "Nc1c(F)c(-c2ccc3[nH]ccc3c2)nc(C(=O)O)c1Cl", "measurement": "45 to 59%"}
{"input_smiles": "COC(=O)c1nc(-c2cccc3[nH]ccc23)c(F)c(N)c1Cl", "measurement": "0 to 29%"}
{"input_smiles": "Nc1c(Cl)c(C(=O)O)nc(-c2ccc3cc[nH]c3c2)c1Cl", "measurement": "0 to 29%"}
{"input_smiles": "COC(=O)c1nc(-c2ccc(Cl)c3ccoc23)nc(N)c1OC", "measurement": "75 to 84%"}
{"input_smiles": "COC(=O)c1nc(-c2ccc3cn[nH]c3c2)c(F)c(N)c1Cl", "measurement": "60 to 74%"}
{"input_smiles": "COC(=O)c1nc(-c2ccc3occc3c2)nc(N)c1OC", "measurement": "60 to 74%"}
{"input_smiles": "COC(=O)c1nc(-c2cc3[nH]ccc3cc2F)cc(N)c1Cl", "measurement": "0 to 29%"}
{"input_smiles": "Nc1c(F)c(-c2ccc3ccsc3c2)nc(C(=O)O)c1Cl", "measurement": "85 to 94%"}
{"input_smiles": "COC(=O)c1nc(-c2cc3ccoc3cc2F)nc(N)c1OC", "measurement": "0 to 29%"}
{"input_smiles": "COc1c(N)nc(-c2ccc3ccsc3c2)nc1C(=O)O", "measurement": "60 to 74%"}
{"input_smiles": "COC(=O)c1nc(-c2ccc3sccc3c2)c(C)c(N)c1Cl", "measurement": "95 to 100%"}
{"input_smiles": "COC(=O)c1nc(-c2ccc(Cl)c3occc23)c(F)c(N)c1Cl", "measurement": "95 to 100%"}
{"input_smiles": "COC(=O)c1nc(-c2ccc3scnc3c2)c(F)c(N)c1Cl", "measurement": "85 to 94%"}
{"input_smiles": "COC(=O)c1nc(-c2cc3sccc3cc2F)c(F)c(N)c1Cl", "measurement": "85 to 94%"}

----------
Collected pest or weed control at 70 g/ha values appear next to each entry.
System: Key Grass and Sedge Weeds as well as Grass Crops
Assay: Post-emergent Test II herbicidal activity (Table 16)
Assay type: in vivo
Settings: Oryza sativa, post-emergence, 336 h, rice (Oryza sativa), 70 g ai/ha, 14 days after application, read-out: Visual Growth Reduction (%) 14 Days After Application ORYSA
measure: pest or weed control at 70 g/ha

{"input_smiles": "COC(=O)c1nc(-c2ccc3ocnc3c2)c(F)c(N)c1Cl", "measurement": "0 to 29%"}
{"input_smiles": "COC(=O)c1nc(-c2cccc3sccc23)c(F)c(N)c1Cl", "measurement": "0 to 29%"}
{"input_smiles": "COC(=O)c1nc(-c2cccc3cn[nH]c23)c(F)c(N)c1Cl", "measurement": "0 to 29%"}
{"input_smiles": "COC(=O)c1nc(-c2ccc3c(cnn3C)c2)c(F)c(N)c1Cl", "measurement": "0 to 29%"}
{"input_smiles": "COC(=O)c1nc(-c2ccc3c(N(C)C)noc3c2)c(F)c(N)c1Cl", "measurement": "0 to 29%"}
{"input_smiles": "COc1c(N)nc(-c2ccc3ccsc3c2)nc1C(=O)O", "measurement": "30 to 44%"}
